Entries and their Kd values follow.
- measuredTarget: T1, extracellular domain of human BCMA (human, UniProt Q02223 1-54)
- T1 construct: amine-linked to Octet AR2G tips; also called hsBCMA; BCMA (human)
- T1 sequence: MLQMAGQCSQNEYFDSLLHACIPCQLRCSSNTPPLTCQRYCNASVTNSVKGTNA
- testDetails: Octet BLI; Fab 200 nM
quantity: Kd (nM)

AB200-(2Vk35)_R2-VH-v38 (Fab, V domains shown) VH: QVQLVQSGAEVKKPGSSVKVSCKASGGTFSNYWIHWVRQAPGQGLEWMGATYRSQSDTYYNEKFKSRVTITADKSTSTAYMELSSLRSEDTAVYYCARGAIYHGFDVIDNWGQGTLVTVSS VL: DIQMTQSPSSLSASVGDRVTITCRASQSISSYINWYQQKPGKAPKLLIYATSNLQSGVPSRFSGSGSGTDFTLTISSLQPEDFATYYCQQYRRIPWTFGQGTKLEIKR: 1.89
AB200-(2Vk35)_R2-VH-v56 (Fab, V domains shown) VH: QVQLVQSGAEVKKPGSSVKVSCKASGGSFSNYWIHWVRQAPGQGLEWMGATYRIHSDTYYAQKYKSRVTITADKSTSTAYMELSSLRSEDTAVYYCARGAIFHGYDVIDNWGQGTLVTVSS VL: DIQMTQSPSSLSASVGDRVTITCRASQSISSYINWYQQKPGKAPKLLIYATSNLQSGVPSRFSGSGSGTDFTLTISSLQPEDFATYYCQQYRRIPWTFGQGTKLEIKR: 11.3
AB200-(2Vk35)_R2-VH-v55 (Fab, V domains shown) VH: QVQLVQSGAEVKKPGSSVKVSCKASGGSFSNYWIHWVRQAPGQGLEWMGATYRIHSTTYYNQKYKSRVTITADKSTSTAYMELSSLRSEDTAVYYCARGAVYHGYDVIDNWGQGTLVTVSS VL: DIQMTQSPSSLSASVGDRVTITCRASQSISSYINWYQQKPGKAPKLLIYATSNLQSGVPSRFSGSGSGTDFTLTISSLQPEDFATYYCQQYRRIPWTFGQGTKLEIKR: 19.7
AB200-(2Vk35)_R2-VH-v48 (Fab, V domains shown) VH: QVQLVQSGAEVKKPGSSVKVSCKASGGTYSNYWIHWVRQAPGQGLEWMGGTYRIHSTTYYNQKFKSRVTITADKSTSTAYMELSSLRSEDTAVYYCARGAIYHGFDVIDNWGQGTLVTVSS VL: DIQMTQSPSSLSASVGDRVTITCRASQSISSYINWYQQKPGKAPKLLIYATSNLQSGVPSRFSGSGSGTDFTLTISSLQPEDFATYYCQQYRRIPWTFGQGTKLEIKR: 36.6
